System: HOP-62 NSCLC
Test: NCI-60 one-dose screen, 48 h (100 = growth as untreated, 0 = no growth, -100 = all killed)
Conditions: 10 µM unless noted
Compounds without any hit were thinned out: in the full panel of roughly 83,000, 20% have a hit.

compound | growth, %
COc1ccc2c(c1OC)CO[C@@H]2[C@H]1c2c(cc3c(c2OC)OCO3)CCN1S(=O)(=O)c1cn(C)cn1 | 30.9
C=C1CC[C@@H]2[C@](C)(COC(C)=O)[C@H](OC(C)=O)CC[C@@]2(C)[C@@H]1CC(Nc1ccc(S(=O)(=O)Nc2ncccn2)cc1)C1=CCOC1=O (stereo partly drawn) | 126
O=C(NNC(=O)c1ccc(NC(=O)c2ccccn2)cc1)Nc1ccc([N+](=O)[O-])cc1 | 96.1
C/C(=N\O)c1ccc(Cl)cc1 | 95.7
COC1=CC(c2ccc[nH]2)=N/C1=C\c1[nH]c(C)c(CC(=O)NCc2ccccc2)c1C | 20.6
O=C1c2ccc3c4c5ccc(c24)C(=O)N1CCCOCCCCOCCCNCc1ccc(cc1)CNCCCOCCCCOCCCN(C3=O)C5=O | 33.6
O=C(/C=C/c1cn(-c2ccccc2)nc1-c1ccc(Cl)cc1)c1ccc(F)cc1 | 102
COc1ccc(NC(=O)c2sc3nc(C)c(C(=O)/C=C/c4ccccc4)cc3c2N)cc1 | 60.8

* * *

Test system: SK-MEL-2 melanoma
Assay: NCI-60 one-dose screen, 48 h
Conditions: 10 µM unless noted
The panel holds about 83,000 compounds, 20% with a hit somewhere; the sample as a whole holds those more often. Calls of active or inactive are those of the source. Rule for the calls: active = growth percent below 10; inactive = the rest.
Labels: t (active), f (inactive)

compound | targetOrTestSystem | assignedClass
COC(=O)CC[C@H](C)[C@H]1CC[C@H]2[C@@H]3CC[C@@H]4CC5(CC[C@]4(C)[C@H]3CC(=O)[C@]12C)Nc1ccccc1NC5=NC(C)(C)C (some centres undefined) | SK-MEL-2 melanoma | f
CN(C)CCNC(=O)c1cc2c3cc(Cl)ccc3[nH]c2c2ncccc12 | SK-MEL-2 melanoma | f
COC(=O)c1c2c(c(C)[n+]([O-])c1C)C(=O)C(NCc1cccc(OC)c1)=CC2=O | SK-MEL-2 melanoma | f
Cc1cc(=O)n(C(=O)Nc2ccccc2Cl)c2cc(O)ccc12 | SK-MEL-2 melanoma | f
COc1cc2c(c(OC)c1OC)CCC(c1cccc(NC(=O)c3ccc(Br)cc3)c1)O2 (centres undefined) | SK-MEL-2 melanoma | f
N#Cc1c(-c2ccc(Cl)cc2)nc(NN2C(=O)c3ccccc3C2=O)nc1N1CCOCC1 | SK-MEL-2 melanoma | f
CCSc1nc2scc(C)c2c(=O)[nH]1 | SK-MEL-2 melanoma | f
O=C1c2ccccc2-c2c1c1c(=O)[nH]c3ccccc3c1n2Cc1ccccc1 | SK-MEL-2 melanoma | f
CN(C)c1ccc(C(=O)OCCCCCCl)cc1 | SK-MEL-2 melanoma | f
CCC(C(=O)[C@@H](C)[C@@H](O)[C@H](C)[C@@H]1O[C@@H]([C@@H](CC)C(=O)ONC(=O)c2ccccc2)CC[C@@H]1C)[C@H]1O[C@]2(C=CC(=O)[C@]3(CC[C@@](C)([C@H]4CC[C@](O)(CC)[C@H](C)O4)O3)O2)[C@H](C)C[C@@H]1C (some centres undefined) | SK-MEL-2 melanoma | t
Nc1ncnc2c1c(-c1cccc(Cl)c1)nn2CC(=O)N1CCOCC1 | SK-MEL-2 melanoma | f
O=C(Nc1ccccc1)Nc1ncnc2c1ncn2-c1ccc(Cl)cc1 | SK-MEL-2 melanoma | f
COc1ccc(-c2cc(-c3cc(OC)c(OC)c(OC)c3)c(C#N)c(=O)n2CCCCC(=O)NO)cc1 | SK-MEL-2 melanoma | f
COC(=O)Nc1nc2ccc(S(=O)c3ccccc3)cc2[nH]1 (centres undefined) | SK-MEL-2 melanoma | f
CCOC(=O)C#Cc1c(C(=O)OCC)nnn1Cc1ccc([N+](=O)[O-])cc1 | SK-MEL-2 melanoma | f
CC(=O)Oc1ccc(/C(=C(\C)c2ccc(Cl)cc2)c2ccc(OCCN3CCCCC3)cc2)cc1 | SK-MEL-2 melanoma | f
O=C(Nc1ccc(Oc2cccc(F)c2)c(Cl)c1)c1cccnc1 | SK-MEL-2 melanoma | f
COc1cc(OC)c(/C=C/C(=O)c2c(OC)cccc2OC)c(OC)c1 | SK-MEL-2 melanoma | t
c1ccc(-c2oc(-c3ccccc3)c(CN3CCCCC3)c2CN2CCCCC2)cc1 | SK-MEL-2 melanoma | f
